Tested on: SNB-19 CNS
assayProcedure: NCI tumour cell line growth inhibition, 48 h
recordedMetric: GI50

[[record]]
chemsmiles = "CCOc1nccc2c1nc(-c1nonc1N)n2CC"
subjectoftest = "SNB-19 CNS"
resultvalue = "> 25 µM"

[[record]]
chemsmiles = "CC(C)C[C@H](NC(=O)CCn1ccc2ncccc2c1=O)B(O)O"
subjectoftest = "SNB-19 CNS"
resultvalue = "32.6 µM"

[[record]]
chemsmiles = "NC(=O)c1ccccc1NC(=O)c1ccccc1Cl"
subjectoftest = "SNB-19 CNS"
resultvalue = "> 100 µM"

[[record]]
chemsmiles = "COc1ccc(-c2ccc(-c3ccc(C(=N)N)cn3)o2)cc1Cl"
subjectoftest = "SNB-19 CNS"
resultvalue = "1.79 µM"


* * *

Listing: GI50 of selected molecules
Test system: HT29 colon
assayProcedure: NCI tumour cell line growth inhibition, 48 h
recordedMetric: GI50

[[record]]
molecule = "Cc1ncc(C(=O)Nc2ccc(CN3CCN(C)CC3)c(C(F)(F)F)c2)cc1C#Cc1c(N)ncc2ccccc12"
recordedmetric = "GI50"
resultvalue = "97.8 nM"

[[record]]
molecule = "C=C1C(OC/C=C/COC2O[C@@H]3O[C@@]4(C)CC[C@H]5[C@H](C)CC[C@@H](C2=C)[C@@]35OO4)O[C@@H]2O[C@@]3(C)CC[C@H]4[C@H](C)CC[C@@H]1[C@@]24OO3 (some centres undefined)"
recordedmetric = "GI50"
resultvalue = "43.8 nM"

[[record]]
molecule = "O=S(=O)(NC1=NCCN1C(=S)SN1CCn2c1nsc2=S)c1ccccc1Cl"
recordedmetric = "GI50"
resultvalue = "15400 nM"

[[record]]
molecule = "COc1ccc(-c2ccc(-c3ccc(C(=N)N)cn3)o2)cc1Cl"
recordedmetric = "GI50"
resultvalue = "1870 nM"


* * *

Tested on: UACC-257 melanoma
assayProcedure: NCI tumour cell line growth inhibition, 48 h
recordedMetric: TGI

[[record]]
chemsmiles = "COc1ccc(CNc2nc3cc(C(F)(F)F)ccc3nc2-c2ccccc2)cc1OC"
recordedmetric = "TGI"
resultvalue = "> 100 µM"

[[record]]
chemsmiles = "O=C(COc1cccc(/C=C2\\Oc3ccc4ccccc4c3C2=O)c1)c1ccc(Cl)cc1"
recordedmetric = "TGI"
resultvalue = "> 100 µM"

[[record]]
chemsmiles = "COc1ccc(Cn2cc3c(c2-c2cc(OC)c(OC)c(OC)c2)CCc2cnoc2-3)cc1N"
recordedmetric = "TGI"
resultvalue = "> 100 µM"

[[record]]
chemsmiles = "COc1cccc(N=N/C(=N\\NC(=O)c2cc(Br)ccc2O)c2ccc(N(CCC#N)CCC#N)cc2OC)c1"
recordedmetric = "TGI"
resultvalue = "> 150 µg/mL"


* * *

Test system: MOLT-4 leukemia
assayProcedure: NCI tumour cell line growth inhibition, 48 h
Listing: TGI of selected compounds
recordedMetric: TGI

[[record]]
compound = "CC(C)CC12CC3CCC(CNC1=O)C32C (stereo not given)"
resultvalue = "> 100 µM"

[[record]]
compound = "N=c1oc2ccccc2cc1-c1nc2ccccc2c(=O)[nH]1"
resultvalue = "> 100 µM"

[[record]]
compound = "COC1(c2cccs2)c2ccccc2C(OC)(c2cccs2)c2ccccc21 (stereo not given)"
resultvalue = "> 100 µM"

[[record]]
compound = "COC(=O)c1cccc(OC)c1C#Cc1c(OC)cccc1OC"
resultvalue = "> 100 µM"

[[record]]
compound = "COc1cc(NC(=O)NCc2ccco2)ccc1-c1ccc(NC(=O)NCc2ccco2)cc1OC"
resultvalue = "> 100 µM"

[[record]]
compound = "COc1c(C)c(C/C=C(\\C)CC/C=C(\\C)CC/C=C(\\C)CCC=C(C)C)c(OC)c2ccccc12"
resultvalue = "> 100 µM"

[[record]]
compound = "CC1CCCc2c1c1ccc3c(O)cccc3c1oc2=O (stereo not given)"
resultvalue = "> 100 µM"

[[record]]
compound = "O=C(NC1C2CC3CC(C2)CC1C3)/C(Cl)=C1/Sc2ccccc2NC1=O (stereo not given)"
resultvalue = "> 100 µM"

[[record]]
compound = "O=C(O)CCc1ccc2c(c1)CC1(Cc3ccccc3C1)C2"
resultvalue = "> 100 µM"

[[record]]
compound = "CCC(=O)/C(=C\\I)c1ccccc1"
resultvalue = "7.08 µM"

[[record]]
compound = "CCNNC(=O)[C@@H]1[C@H](c2cc(OC)c(OC)c(OC)c2)c2cc3c(cc2[C@H](O)[C@H]1CO)OCO3"
resultvalue = "> 100 µM"

[[record]]
compound = "COC(=O)[C@H](C)NC(=O)[C@@H](OC)[C@@H]1Cc2cc3cc(OC4CC(OC5CC(O)C(O)C(C)O5)C(O)C(C)O4)c(C)c(O)c3c(O)c2C(=O)[C@H]1OC1CC(OC2CC(OC3CC(C)(O)C(O)C(C)O3)C(O)C(C)O2)C(O)C(C)O1 (stereo not given in full)"
resultvalue = "4.13 µM"

[[record]]
compound = "NS(=O)(=O)c1ccc(-n2ncc3c(Nc4ccccc4)ncnc32)cc1"
resultvalue = "61.4 µM"

[[record]]
compound = "CC1(C(=O)O)CCOc2ccccc21 (stereo not given)"
resultvalue = "> 100 µM"

[[record]]
compound = "O=C1CS(=O)(=O)C(c2cccc(Oc3ccccc3)c2)N1c1ccccc1 (stereo not given)"
resultvalue = "65.7 µM"

[[record]]
compound = "CC(=O)[O-].[Zn].c1ccc(/C(=N\\Nc2ccccn2)c2ccccn2)cc1"
resultvalue = "0.227 µM"

[[record]]
compound = "O=C(Nc1ccc(Br)cc1)C(=O)C(C(=O)c1ccccc1F)C1OC(=O)c2ccccc21 (stereo not given)"
resultvalue = "92.8 µM"

[[record]]
compound = "Cc1ncc(C(=O)Nc2ccc(CN3CCN(C)CC3)c(C(F)(F)F)c2)cc1C#Cc1c(N)ncc2ccccc12"
resultvalue = "0.836 µM"

[[record]]
compound = "CC(=O)OCCCCn1cc(Cn2ccc(=O)n(Cc3cn(CCCCOC(C)=O)nn3)c2=O)nn1"
resultvalue = "> 100 µM"

[[record]]
compound = "COc1ccc2c(CCNC(=O)/C=C/c3ccccc3)c(C(C)=O)[nH]c2c1[N+](=O)[O-]"
resultvalue = "> 100 µM"

[[record]]
compound = "CCOC(=O)C(C)(C)Oc1ccc2c(-c3ccc(Cl)cc3)c(-c3ccc(Cl)cc3)c(=O)oc2c1"
resultvalue = "> 100 µM"

[[record]]
compound = "C=C1C(OC/C=C/COC2O[C@@H]3O[C@@]4(C)CC[C@H]5[C@H](C)CC[C@@H](C2=C)[C@@]35OO4)O[C@@H]2O[C@@]3(C)CC[C@H]4[C@H](C)CC[C@@H]1[C@@]24OO3 (stereo not given in full)"
resultvalue = "> 100 µM"

[[record]]
compound = "COc1cccc(N=N/C(=N\\NC(=O)c2cc(Br)ccc2O)c2ccc(N(CCC#N)CCC#N)cc2OC)c1"
resultvalue = "> 150 µg/mL"

[[record]]
compound = "CCCN(CCC)C1CCc2c(ccc3cc[nH]c23)C1 (stereo not given)"
resultvalue = "96.7 µM"

[[record]]
compound = "CCC1(NC(=O)c2cc(F)c(F)c(F)c2F)C(=O)NC(=O)N(C(C)C)C1=O (stereo not given)"
resultvalue = "78.8 µM"

[[record]]
compound = "CCOC(=O)C(NC(=O)CC)(Nc1ccc(F)c(Cl)c1)C(F)(F)F (stereo not given)"
resultvalue = "> 100 µM"

[[record]]
compound = "C=C1C(=O)OC2/C=C(\\CO)CC/C=C(\\CO)CC(OC(=O)C(C)C)C12 (stereo not given)"
resultvalue = "> 27.4 µM"

[[record]]
compound = "COc1ccc2c(c1)CCN1CCCc3ccccc3C21 (stereo not given)"
resultvalue = "> 100 µM"

[[record]]
compound = "CC(C)C[C@H](NC(=O)[C@H](Cc1cccc2ccccc12)NS(=O)(=O)c1cccc2cccnc12)B(O)O"
resultvalue = "0.00228 µM"

[[record]]
compound = "NCCCN1CCN(CCCNc2nc3ccccc3c3[nH]c4ccccc4c23)CC1"
resultvalue = "4.02 µM"


* * *

Listing: TGI of selected compounds
Tested on: CCRF-CEM leukemia
assayProcedure: NCI tumour cell line growth inhibition, 48 h
recordedMetric: TGI

[[record]]
compound = "COc1ccc([C@]23CCN4COC[C@@H]([C@H]42)C2(CC3)OCC(C)(C)CO2)cc1OC"
resultvalue = "> 100 µM"

[[record]]
compound = "Nc1nccc2c1ncn2C1OC(CO)C(O)C1O (stereo not drawn)"
resultvalue = "> 100 µM"

[[record]]
compound = "CC(=O)OCCCCn1cc(Cn2ccc(=O)n(Cc3cn(CCCCOC(C)=O)nn3)c2=O)nn1"
resultvalue = "> 100 µM"


* * *

Listing: TGI of selected compounds
Tested on: BT-549 breast
assayProcedure: NCI tumour cell line growth inhibition, 48 h
recordedMetric: TGI (µM)

[[record]]
compound = "Nc1ccc2ccc(-c3ccc[nH]3)nc2n1"
recordedmetric = "TGI"
measureunit = "µM"
inequalitysign = ">"
resultvalue = 100

[[record]]
compound = "O=C1CS[C@@](CC(c2ccc(Cl)cc2)c2ccc(Cl)cc2)(c2ccc(Cl)cc2)N1"
recordedmetric = "TGI"
measureunit = "µM"
inequalitysign = ">"
resultvalue = 100

[[record]]
compound = "Cc1ccc(Nc2cc(C)nc(NCCCNc3ccnc4cc(Cl)ccc34)n2)cc1"
recordedmetric = "TGI"
measureunit = "µM"
inequalitysign = "="
resultvalue = 3.4

[[record]]
compound = "CCN(CC)CCOC(=O)Cc1cccc2c(=O)cc(-c3ccccc3)oc12"
recordedmetric = "TGI"
measureunit = "µM"
inequalitysign = "="
resultvalue = 61.7

[[record]]
compound = "Clc1ccc(C2CC(c3cccc(Nc4ccncc4)c3)=NN2c2cc(Cl)cc(Cl)c2)cc1 (centres undefined)"
recordedmetric = "TGI"
measureunit = "µM"
inequalitysign = "="
resultvalue = 3.57

[[record]]
compound = "N=c1oc2ccccc2cc1-c1nc2ccccc2c(=O)[nH]1"
recordedmetric = "TGI"
measureunit = "µM"
inequalitysign = ">"
resultvalue = 100

[[record]]
compound = "FC(F)(F)c1cccc2c(SCCc3n[nH]c(=S)o3)ccnc12"
recordedmetric = "TGI"
measureunit = "µM"
inequalitysign = ">"
resultvalue = 100

[[record]]
compound = "C=Cc1nc(C#N)c(N)o1"
recordedmetric = "TGI"
measureunit = "µM"
inequalitysign = ">"
resultvalue = 100

[[record]]
compound = "NCCCN1CCN(CCCNc2nc3ccccc3c3[nH]c4ccccc4c23)CC1"
recordedmetric = "TGI"
measureunit = "µM"
inequalitysign = "="
resultvalue = 5.72

[[record]]
compound = "Cc1cc(N(CCC#N)CCC#N)ccc1/C=C1\\SC(=S)NC1=O"
recordedmetric = "TGI"
measureunit = "µM"
inequalitysign = ">"
resultvalue = 100

[[record]]
compound = "CCCCCCCCCCCCCCCCCC(=O)Nc1ccn(C2CCC(COP(=O)(O)O)O2)c(=O)n1 (centres undefined)"
recordedmetric = "TGI"
measureunit = "µM"
inequalitysign = ">"
resultvalue = 100

[[record]]
compound = "COC([C@@H](OC(=O)c1ccccc1)[C@H](OC(=O)c1ccccc1)C(O)COC(=O)c1ccccc1)n1cc(C)c(=O)[nH]c1=O (some centres undefined)"
recordedmetric = "TGI"
measureunit = "µM"
inequalitysign = "="
resultvalue = 77

[[record]]
compound = "CCCc1nnc2sc(COc3cc(Cl)c(OCc4nn5c(CCC)nnc5s4)cc3Cl)nn12"
recordedmetric = "TGI"
measureunit = "µM"
inequalitysign = ">"
resultvalue = 100

[[record]]
compound = "CN(C)CCNC(=O)c1ccc(Cl)c2cc3ccccc3nc12"
recordedmetric = "TGI"
measureunit = "µM"
inequalitysign = "="
resultvalue = 7.82

